target_of_assay: AURKB (human)
assay_method_text: radiometric filter-binding kinase assay
settings: compound 0.1 µM
Mark MET only when residual activity stays strictly below 80%. Values equal to the cut-off are NOT MET.

Some entries whose results are on file:
>>> discrete_label("CN(C)C/C=C/C(=O)Nc1cccc(C(=O)Nc2ccc(Nc3nccc(-c4cccnc4)n3)cc2)c1")
"MET"
>>> discrete_label("C=CC(=O)N1CCC[C@@H](n2nc(-c3ccc(Oc4ccccc4)cc3)c3c(N)ncnc32)C1")
"NOT MET"
>>> discrete_label("NC(=O)c1cc2c(-c3cccc(-c4ccccc4)c3)cnc(N)c2s1")
"NOT MET"

Does this molecule meet the criterion residual activity < 80%? "CNc1nc(-c2ccc3c(N)n[nH]c3c2)cc(N2C[C@@H](C(=O)NC3CCCCC3)CC[C@H]2C)n1" NOT MET

Does this molecule meet the criterion residual activity < 80%? "CCn1c(-c2nonc2N)nc2cncc(CNC3CCNCC3)c21" NOT MET

Does this molecule meet the criterion residual activity < 80%? "Cc1cc(NC(=O)c2cccc(NC(=O)/C=C/CN(C)C)c2)ccc1Nc1nccc(-c2cccnc2)n1" NOT MET

Does this molecule meet the criterion residual activity < 80%? "Cc1ccc(Sc2cnc(Nc3cccc(Br)n3)s2)cc1C(=O)N1CCN(C(=O)CN)CC1" MET
